Assay Target: Mtr LpqY (Mycolicibacterium thermoresistibile)
Assay Name: Thermal shift assay (SYPRO Orange) of potential ligands
Type: binding, Mycobacterium thermoresistible
Measurement Conditions: ligand 10 mM
Measure: Recognition in the thermal shift screen (in words)

OC[C@H]1O[C@H](O[C@H]2C(O)O[C@H](CO)[C@@H](O)[C@@H]2O)[C@H](O)[C@@H](O)[C@@H]1O (stereo partly shown) ... reduced ΔTm shifts
OC[C@H]1O[C@H](OC[C@H]2OC(O)[C@H](O)[C@@H](O)[C@@H]2O)[C@H](O)[C@@H](O)[C@@H]1O (stereo partly shown) ... reduced ΔTm shifts
OC[C@H]1O[C@H](O[C@H]2[C@H](O)[C@@H](CO)OC(O)[C@@H]2O)[C@H](O)[C@@H](O)[C@@H]1O (stereo partly shown) ... reduced ΔTm shifts

----------
Assay Target: Mtr LpqY (Mycolicibacterium thermoresistibile, UniProt G7CES0)
Sequence (G7CES0 29-471): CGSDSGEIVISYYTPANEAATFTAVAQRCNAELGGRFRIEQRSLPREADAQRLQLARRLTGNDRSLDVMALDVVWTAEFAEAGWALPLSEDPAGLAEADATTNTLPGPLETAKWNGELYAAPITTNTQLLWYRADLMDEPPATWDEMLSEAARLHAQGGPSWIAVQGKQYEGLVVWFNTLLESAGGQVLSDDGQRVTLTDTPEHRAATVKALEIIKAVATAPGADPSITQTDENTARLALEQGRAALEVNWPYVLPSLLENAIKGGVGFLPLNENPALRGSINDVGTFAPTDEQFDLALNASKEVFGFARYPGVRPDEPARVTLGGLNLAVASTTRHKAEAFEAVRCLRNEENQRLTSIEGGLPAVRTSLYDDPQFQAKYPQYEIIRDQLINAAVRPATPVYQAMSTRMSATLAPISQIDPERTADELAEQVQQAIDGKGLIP
Assay Name: Thermal shift assay (SYPRO Orange) of potential ligands
Format: binding, Mycobacterium thermoresistible
Measurement Conditions: ligand 10 mM, Mtr LpqY 2.6 μM; shift relative to protein alone (Tm 66.0 °C); no unit in table, °C
Label key: Fulfilled means ΔTm under 6; Not fulfilled means ΔTm of 6 or more.

O=P(O)(O)OC[C@H]1O[C@H](O[C@H]2O[C@H](CO)[C@@H](O)[C@H](O)[C@H]2O)[C@H](O)[C@@H](O)[C@@H]1O [Trehalose-6-phosphate] ... Fulfilled
[N-]=[N+]=N[C@H]1[C@@H](O[C@H]2O[C@H](CO)[C@@H](O)[C@H](O)[C@H]2O)O[C@H](CO)[C@@H](O)[C@@H]1O ... Fulfilled

Continue with the compound presented below.
ΔTm strictly < 6 for this compound? NC[C@H]1O[C@H](O[C@H]2O[C@H](CO)[C@@H](O)[C@H](O)[C@H]2O)[C@H](O)[C@@H](O)[C@@H]1O Not fulfilled

----------
Assay Target: Mtr LpqY (Mycolicibacterium thermoresistibile)
Assay Name: Microscale thermophoresis (MST), wild-type protein
Assay type: binding, Mycobacterium thermoresistible
Measurement Conditions: 21 °C, wild-type Mtr LpqY 500 nM, mean ± SEM, at least three experiments, read-out: Kd
Form field: pKd (one value per entry).
Scale note: pKd = -log10(concentration in M).

These recorded examples may help you get a feel for the data.
[N-]=[N+]=N[C@H]1[C@H](O)[C@@H](O)[C@@H](O[C@H]2O[C@H](CO)[C@@H](O)[C@H](O)[C@H]2O)O[C@@H]1CO ... 3.61
[N-]=[N+]=N[C@@H]1[C@@H](O)[C@@H](O[C@H]2O[C@H](CO)[C@@H](O)[C@H](O)[C@H]2O)O[C@H](CO)[C@H]1O ... 3.32
[N-]=[N+]=N[C@H]1[C@@H](O[C@H]2O[C@H](CO)[C@@H](O)[C@H](O)[C@H]2O)O[C@H](CO)[C@@H](O)[C@@H]1O ... 2.72

We next turn to a different compound, shown below.
Provide only the value of recorded pKd for OC[C@H]1O[C@H](O[C@H]2C(O)O[C@H](CO)[C@@H](O)[C@@H]2O)[C@H](O)[C@@H](O)[C@@H]1O (stereo partly shown) 2.63

----------
Assay Target: Mtr LpqY (Mycolicibacterium thermoresistibile)
Assay Name: Thermal shift assay (SYPRO Orange) of potential ligands
Format: binding, Mycobacterium thermoresistible
Measurement Conditions: ligand 10 mM, Mtr LpqY 2.6 μM; shift relative to protein alone (Tm 66.0 °C); no unit in table, °C
Listed here: items and their measured ΔTm.
Form: value (number only, do not type unit).

In the examples that follow, each entry is paired with its recorded ΔTm.
OC[C@H]1O[C@H](O[C@H]2[C@H](O)[C@@H](CO)OC(O)[C@@H]2O)[C@H](O)[C@@H](O)[C@@H]1O (stereo partly drawn) [Nigerose] ... 5.1
OC[C@H]1O[C@H](O[C@H]2C(O)O[C@H](CO)[C@@H](O)[C@@H]2O)[C@H](O)[C@@H](O)[C@@H]1O (stereo partly drawn) [Kojibiose] ... 7.9
OC[C@H]1O[C@@H](O[C@H]2O[C@H](CO)[C@@H](O)[C@H](O)[C@H]2O)[C@H](O)[C@@H](O)[C@@H]1O [α,β-trehalose] ... 3.7
OC[C@H]1O[C@H](OC[C@H]2OC(O)[C@H](O)[C@@H](O)[C@@H]2O)[C@H](O)[C@@H](O)[C@@H]1O (stereo partly drawn) [Isomaltose] ... 4.1
[N-]=[N+]=N[C@@H]1[C@@H](O)[C@@H](O[C@H]2O[C@H](CO)[C@@H](O)[C@H](O)[C@H]2O)O[C@H](CO)[C@H]1O [3-azido-3-deoxy-trehalose] ... 6.7

Please report the measured ΔTm for [N-]=[N+]=N[C@H]1[C@H](O)[C@@H](O)[C@@H](O[C@H]2O[C@H](CO)[C@@H](O)[C@H](O)[C@H]2O)O[C@@H]1CO [4-azido-4-deoxy-trehalose, 4-azido-4-deoxy-α,α′-trehalose] 10.2
